So I've got a bunch of compounds here, and I need their growth inhibition values.
# System: Plasmodium falciparum NF54
# Experiment description: growth inhibition relative to untreated control; higher = more inhibition
# Condition description: 1 µM; minimal medium (MM); 72 h
Answers are plain numbers, in %.

CC(C)(C)C(O)C(Oc1ccc(-c2ccccc2)cc1)n1cncn1 (stereo unspecified) :: 5.38
CO/N=C(\C(=O)OC)c1ccccc1CO/N=C(\C)c1cccc(C(F)(F)F)c1 :: 96.6
CC1COC(Cn2cncn2)(c2ccc(Oc3ccc(Cl)cc3)cc2Cl)O1 (stereo unspecified) :: 38.1
CCc1nn(C)c(C(=O)NCc2ccc(Oc3ccc(C)cc3)cc2)c1Cl :: 3.68
Cc1nn(C)c(C)c1NS(=O)(=O)c1c(Cl)cc(-c2ccnc(N3CCNCC3)c2)cc1Cl :: 79.5

Look at each compound and report its growth inhibition.
1. Nc1c2c(nc3sc4c(c13)CCCC4)CCCC2
2. Cc1cccc(C(=O)Nc2ccnc(N(C)C3CCN(CC(C)C)CC3)c2)c1
3. CO/C=C(/C(=O)OC)c1ccccc1Oc1cc(Oc2ccccc2C#N)ncn1

Reply:
[13.8, 61.7, 94.7]
